molecular target: UniProt:P00742; assay: Inhibition of human F10a; conditions: read-out: Ki app
endpoint: pKi
# pKi = -log10(concentration in molar units)

Task item: Param item = COc1cc(Cl)cc(C(=O)Nc2ccc(Cl)cn2)c1NC(=O)c1scc(CN(C2=NCCO2)C(C)(C)C)c1Cl ; retrieve measured pKi.
Reply: 9.92

Task item: Thanks! And COc1cc(Cl)cc(C(=O)Nc2ccc(Cl)cn2)c1NC(=O)c1scc(Cn2ccnc2NC(C)C)c1Cl ?
Reply: 11.10

Task item: Queued: COc1cc(Cl)cc(C(=O)Nc2ccc(Cl)cn2)c1NC(=O)c1scc(CN(C)C(=O)NCCO)c1Cl
Reply: 10.30

----------
Would you mind telling me the reported half-life of each entry?
assay: Half life in Beagle dog at 1 mg/kg, iv; assay type: ADME, organism-based, Canis lupus familiaris; parameters: dose 1 mg/kg, route intravenous; conditions: in vivo
Value expressed in h; do not type the unit.

Task item: So what does the record say about half-life for CNCc1csc(C(=O)Nc2c(OC)cc(Cl)cc2C(=O)Nc2ccc(Cl)cn2)c1Cl ?
Reply: 10.5

Task item: Quick one: COc1cc(Cl)cc(C(=O)Nc2ccc(Cl)cn2)c1NC(=O)c1scc(CN(C)CCO)c1Cl
Reply: 2.1

Task item: Same read-out for CNc1nccn1Cc1csc(C(=O)Nc2c(OC)cc(Cl)cc2C(=O)Nc2ccc(Cl)cn2)c1Cl ?
Reply: 3.4

Task item: Now consider COc1cc(Cl)cc(C(=O)Nc2ccc(Cl)cn2)c1NC(=O)c1scc(CN(C)C2=NCCO2)c1Cl and answer again.
Reply: 3.2

----------
target: UniProt:P00742
pKi: −log10 of the molar value.
pKi of 10 or higher: t. Under 10: f.

Task item: Is pKi at least 10? Consider COc1cc(Cl)cc(C(=O)Nc2ccc(Cl)cc2)c1NC(=O)c1scc(CN2CCN(C)CC2)c1Cl
Reply: f

Task item: Can you handle COc1cc(Cl)cc(C(=O)Nc2ccc(Cl)cn2)c1NC(=O)c1scc(CN(C)C2=NCCCO2)c1Cl next?
Reply: t

Task item: Please give the result for COc1cc(Cl)cc(C(=O)Nc2ccc(Cl)cn2)c1NC(=O)c1scc(CN(C)CCN2CCCC2)c1Cl too.
Reply: t

Task item: Same for COc1cc(Cl)cc(C(=O)Nc2ccc(Cl)cn2)c1NC(=O)c1scc(CN2CC(=O)NC2=N)c1Cl
Reply: t

Task item: Also check COc1cc(Cl)cc(C(=O)Nc2ccc(Cl)cn2)c1NC(=O)c1scc(CN(C)c2ncc[nH]2)c1Cl
Reply: t

Task item: Consider next the compound COc1cc(Cl)cc(C(=O)Nc2ccc(Cl)cn2)c1NC(=O)c1scc(CN(C)CC(C)(C)O)c1Cl in the same way.
Reply: f

Task item: Query COc1cc(Cl)cc(C(=O)Nc2ccc(Cl)cn2)c1NC(=O)c1scc(CN2CCSC2=N)c1Cl next
Reply: t

Task item: And what about the compound COc1cc(Cl)cc(C(=O)Nc2ccc(Cl)cn2)c1NC(=O)c1scc(CN(C)C(N)=O)c1Cl ?
Reply: t

----------
The following are reported pKi results, target or system Coagulation factor X (Homo sapiens, UniProt P00742).
pKi here is simply -log10 of the concentration when that concentration is written in mol/L.

Task item: Name the reported pKi value associated with the compound COc1cc(Cl)cc(C(=O)Nc2ccc(Cl)cn2)c1NC(=O)c1scc(CN(C)C(=O)NCCN2CCCC2)c1Cl
Reply: 10.44

Task item: Subsequent entry: COc1cc(Cl)cc(C(=O)Nc2ccc(Cl)cn2)c1NC(=O)c1scc(CN2CCCC2)c1Cl
Reply: 9.28

Task item: Then this compound: COc1cc(Cl)cc(C(=O)Nc2ccc(Cl)cn2)c1NC(=O)c1scc(CN(C)CC(C)O)c1Cl (stereo not drawn)
Reply: 9.40

Task item: Another compound: COc1cc(Cl)cc(C(=O)Nc2ccc(Cl)cn2)c1NC(=O)c1scc(CN2CCC(O)CC2)c1Cl
Reply: 8.66

Task item: Would you mind doing CCN(Cc1csc(C(=O)Nc2c(OC)cc(Cl)cc2C(=O)Nc2ccc(Cl)cn2)c1Cl)C1=NCCO1 as well?
Reply: 10.92

Task item: Moving on to COc1cc(Cl)cc(C(=O)Nc2ccc(Cl)cn2)c1NC(=O)c1scc(CN(C)CCCN(C)C)c1Cl
Reply: 10.62

Task item: How about COc1cc(Cl)cc(C(=O)Nc2ccc(Cl)cn2)c1NC(=O)c1scc(CN(C)C2=NC(=O)CO2)c1Cl ?
Reply: 10.59

Task item: Consider next the compound CCNCc1csc(C(=O)Nc2c(OC)cc(Cl)cc2C(=O)Nc2ccc(Cl)cn2)c1Cl in the same way.
Reply: 9.40

Task item: Could you do the same for CCNC(=O)N(C)Cc1csc(C(=O)Nc2c(OC)cc(Cl)cc2C(=O)Nc2ccc(Cl)cn2)c1Cl , please?
Reply: 10.70

Task item: One more compound: COc1cc(Cl)cc(C(=O)Nc2ccc(Cl)cn2)c1NC(=O)c1scc(Cn2ccnc2N)c1Cl
Reply: 11.22

Task item: Now this one: CN1CCN(Cc2csc(C(=O)Nc3ccc(Cl)cc3C(=O)Nc3ccc(Cl)cc3)c2Cl)CC1
Reply: 9.12

Task item: Can you handle COc1cc(Cl)cc(C(=O)Nc2ccc(Cl)cn2)c1NC(=O)c1scc(CN2CCOCC2)c1Cl next?
Reply: 8.85

Task item: Same question for COc1cc(Cl)cc(C(=O)Nc2ccc(Cl)cn2)c1NC(=O)c1scc(CN(C)CCCO)c1Cl please.
Reply: 9.74

Task item: Moving on to COc1cc(Cl)cc(C(=O)Nc2ccc(Cl)cn2)c1NC(=O)c1scc(CN2C=NCC2)c1Cl
Reply: 11.40

----------
So I've got a bunch of compounds here, and I need their Ki values.
target: Prothrombin (Homo sapiens, UniProt P00734)
Field: numeric (nM). Do not append units.

Task item: Find the recorded Ki belonging to COc1cc(Cl)cc(C(=O)Nc2ccc(Cl)cn2)c1NC(=O)c1scc(CN(C)C2=NCCCO2)c1Cl and report it.
Reply: 160

Task item: Same question, COc1cc(Cl)cc(C(=O)Nc2ccc(Cl)cn2)c1NC(=O)c1scc(CN2CCOC2=N)c1Cl this time
Reply: 1100

Task item: Please answer likewise for COc1cc(Cl)cc(C(=O)Nc2ccc(Cl)cn2)c1NC(=O)c1scc(CN2C=NCC2)c1Cl
Reply: 3300

Task item: Further, for COc1cc(Cl)cc(C(=O)Nc2ccc(Cl)cn2)c1NC(=O)c1scc(CNC(C)C)c1Cl ?
Reply: 5400

Task item: Field entry: COc1cc(Cl)cc(C(=O)Nc2ccc(Cl)cn2)c1NC(=O)c1scc(Cn2ccnc2N)c1Cl
Reply: 3500

Task item: Also COc1cc(Cl)cc(C(=O)Nc2ccc(Cl)cn2)c1NC(=O)c1scc(CN2CC(=O)NC2=N)c1Cl ?
Reply: 340

Task item: Repeat with COc1cc(Cl)cc(C(=O)Nc2ccc(Cl)cn2)c1NC(=O)c1scc(CN2CCCC2)c1Cl
Reply: 1400

Task item: Param item: COc1cc(Cl)cc(C(=O)Nc2ccc(Cl)cn2)c1NC(=O)c1scc(CN(C)c2ncco2)c1Cl
Reply: 60

Task item: Quick one: CNc1nccn1Cc1csc(C(=O)Nc2c(OC)cc(Cl)cc2C(=O)Nc2ccc(Cl)cn2)c1Cl
Reply: 990

----------
These compounds were tested on UniProt:P00750; Ki is the recorded read-out.
Sequence (P00750 whole entry): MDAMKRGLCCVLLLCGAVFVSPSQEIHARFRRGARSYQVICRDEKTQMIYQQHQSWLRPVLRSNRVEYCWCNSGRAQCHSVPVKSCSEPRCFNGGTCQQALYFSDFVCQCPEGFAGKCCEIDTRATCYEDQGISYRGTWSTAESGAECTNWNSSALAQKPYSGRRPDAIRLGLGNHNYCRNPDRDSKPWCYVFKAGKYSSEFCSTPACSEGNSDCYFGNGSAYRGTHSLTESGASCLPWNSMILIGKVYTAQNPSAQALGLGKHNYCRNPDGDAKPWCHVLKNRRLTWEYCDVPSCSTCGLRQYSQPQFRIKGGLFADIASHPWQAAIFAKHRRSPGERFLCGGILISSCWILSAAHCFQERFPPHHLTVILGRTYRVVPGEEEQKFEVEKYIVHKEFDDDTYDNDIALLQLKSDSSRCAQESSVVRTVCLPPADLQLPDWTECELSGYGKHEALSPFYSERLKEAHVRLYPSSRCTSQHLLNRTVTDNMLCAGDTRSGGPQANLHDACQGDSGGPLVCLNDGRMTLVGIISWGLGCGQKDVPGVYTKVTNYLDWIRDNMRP

Task item: Quick check: Ki on UniProt:P00750, item CNCc1csc(C(=O)Nc2c(OC)cc(Cl)cc2C(=O)Nc2ccc(Cl)cn2)c1Cl ?
Reply: > 5 µM

Task item: What do we get for COc1cc(Cl)cc(C(=O)Nc2ccc(Cl)cn2)c1NC(=O)c1scc(CN(C)C2=NCCO2)c1Cl ?
Reply: > 5 µM

Task item: Another compound: CNc1nccn1Cc1csc(C(=O)Nc2c(OC)cc(Cl)cc2C(=O)Nc2ccc(Cl)cn2)c1Cl
Reply: > 5 µM

----------
// endpoint log10(Ki) / system Coagulation factor X (Homo sapiens, UniProt P00742)
Recall that a logarithmic scale is used here: each number is log10 of Ki in nM.

Task item: I would be grateful if you could share the reported log10(Ki) for CNCc1csc(C(=O)Nc2c(OC)cc(Cl)cc2C(=O)Nc2ccc(Cl)cn2)c1Cl .
Reply: -0.68

Task item: Check CCNc1nccn1Cc1csc(C(=O)Nc2c(OC)cc(Cl)cc2C(=O)Nc2ccc(Cl)cn2)c1Cl too.
Reply: -2.30

Task item: Likewise for COc1cc(Cl)cc(C(=O)Nc2ccc(Cl)cn2)c1NC(=O)c1scc(CN)c1Cl ?
Reply: 0.00

Task item: Please give the result for COc1cc(Cl)cc(C(=O)Nc2ccc(Cl)cn2)c1NC(=O)c1scc(CN(C)C2=NCCC2)c1Cl too.
Reply: -2.40

Task item: Ok, now COc1cc(Cl)cc(C(=O)Nc2ccc(Cl)cn2)c1NC(=O)c1scc(CN(C)C2=NCCO2)c1Cl
Reply: -2.15

Task item: Please give the result for CCN(C)Cc1csc(C(=O)Nc2c(OC)cc(Cl)cc2C(=O)Nc2ccc(Cl)cn2)c1Cl too.
Reply: -0.66

Task item: Now the same for COc1cc(Cl)cc(C(=O)Nc2ccc(Cl)cn2)c1NC(=O)c1scc(CN(C)S(C)(=O)=O)c1Cl
Reply: -1.35

Task item: Please give the result for COc1cc(Cl)cc(C(=O)Nc2ccc(Cl)cn2)c1NC(=O)c1scc(CN2CCN=C2SC)c1Cl too.
Reply: -2.40

Task item: Okay, and COc1cc(Cl)cc(C(=O)Nc2ccc(Cl)cn2)c1NC(=O)c1scc(Cn2ccnc2)c1Cl ?
Reply: -1.66

Task item: Would you kindly repeat that for COc1cc(Cl)cc(C(=O)Nc2ccc(Cl)cn2)c1NC(=O)c1scc(CN(CC(F)(F)F)C2=NCCO2)c1Cl ?
Reply: 0.34

Task item: Another: COc1cc(Cl)cc(C(=O)Nc2ccc(Cl)cn2)c1NC(=O)c1scc(CN2CCN(C)CC2)c1Cl
Reply: -0.80
